# tested_system: Programmed cell death protein 1/Programmed cell death 1 ligand 1 (Homo sapiens, UniProt Q15116+Q9NZQ7)
# Sequence (Q15116 whole entry): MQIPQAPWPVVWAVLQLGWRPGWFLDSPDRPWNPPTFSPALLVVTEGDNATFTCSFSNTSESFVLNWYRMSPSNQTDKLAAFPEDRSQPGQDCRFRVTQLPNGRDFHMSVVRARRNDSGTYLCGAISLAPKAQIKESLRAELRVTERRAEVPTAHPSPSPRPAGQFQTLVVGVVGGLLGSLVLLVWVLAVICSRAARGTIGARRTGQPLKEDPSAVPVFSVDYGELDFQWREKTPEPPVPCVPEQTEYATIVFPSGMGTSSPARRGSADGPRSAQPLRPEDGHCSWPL
# Sequence (Q9NZQ7 whole entry): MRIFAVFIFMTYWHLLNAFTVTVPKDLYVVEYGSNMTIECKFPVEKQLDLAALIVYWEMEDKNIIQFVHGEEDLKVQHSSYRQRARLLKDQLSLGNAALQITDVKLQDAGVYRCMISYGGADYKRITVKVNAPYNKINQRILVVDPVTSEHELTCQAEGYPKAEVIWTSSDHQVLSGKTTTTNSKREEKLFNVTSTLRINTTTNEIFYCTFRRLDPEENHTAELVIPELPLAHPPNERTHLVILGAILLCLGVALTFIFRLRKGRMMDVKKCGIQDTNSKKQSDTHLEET
# measurement_description: Inhibitory Activity Assay: 1. In vitro activity evaluation: Cisbio PD-1/PD-L1 binding assay kit was applied for the detection method of in vitro enzymology level.Screening Principles and Methods of PD-1/PD-L1 Small Molecule Inhibitors1) Principle: PD-1 protein is with HIS tag, and PD-1 ligand PD-L1 is with hFc tag. Eu labeled anti-hFc antibody and XL665 labeled anti-HIS antibody are combined with the above two label proteins respectively. After laser excitation, energy can be transferred from donor Eu to receptor XL665, allowing XL665 to glow. […] Reagents should be dispensed in the following order. For 384-well white ELISA plate, 2 μl of diluent or target compound diluted with diluent was added to each well, and then 4 μl of PD-1 protein and 4 μl of PD-L1 protein were added per well, incubated for 15 min at room temperature; and 10 μl of a mixture of anti-Tag1-Eu3+ and anti-Tag2-XL665 was added per well and incubated for 1 h to 4 h at room temperature and the fluorescence signals at 665 nm and 620 nm were measured with an Envison instrument. HTRF rate=(665 nm/620 nm)*104. 8-10 concentrations were detected for each compound and IC50 was calculated by Graphpad software.
readout: pIC50
# reply with the number alone; pIC50 is -log10 of concentration in mol/L

Exam item: Given the entry `NC(=O)COc1cc(OCc2cccc(-c3ccc4c(c3)OCCO4)c2Br)c(Cl)cc1CN1C[C@@H](O)C[C@H]1C(=O)O` , report its measured pIC50.
Marked response: 6.74
